pKi tested on UniProtKB P00734: recorded values
Reminder that pKi means the negative base-10 logarithm of the concentration expressed in mol/L.

In: Given COC(=O)CC1(C(=O)Nc2ccc(-c3cccc(C(F)(F)F)c3)cc2)CC(c2cccc(C(=N)N)c2)=NO1 (stereo not drawn) , state its recorded pKi.
Out: 5.92

In: Item COC(=O)CC1(C(=O)Nc2ccc(-c3ccccc3S(N)(=O)=O)cn2)CC(c2cccc(C(=N)N)c2)=NO1.O=C(O)C(F)(F)F (single isomer, unassigned; (+)) has what recorded pKi?
Out: 4.74

In: For the molecule shown here, COC(=O)CC1(C(=O)Nc2ccc(-c3ccccc3S(N)(=O)=O)cn2)CC(c2cccc(C(=N)N)c2)=NO1.O=C(O)C(F)(F)F (single isomer, unassigned; (-)) , give the reported pKi.
Out: 5.54

* * *

# System under test: UniProtKB P00734
Property label: pKi
Value format note: pKi is -log10 of concentration (mol/L); just state the number.

In: # input molecule: COC(=O)CC1(C(=O)Nc2ccc(-c3ccccc3S(C)(=O)=O)cc2)CC(c2cccc(C(=N)N)c2)=NO1 (configuration not stated) ; wanted: its pKi
Out: 6.22

In: May I ask what pKi has been recorded for COC(=O)CC1(C(=O)Nc2ccc(-c3ccccc3C(F)(F)F)cc2)CC(c2cccc(C(=N)N)c2)=NO1 (configuration not stated) ?
Out: 5.85

In: I would be grateful if you could share the reported pKi for COC(=O)CC1(C(=O)Nc2ccc(-c3ccccc3OC)cc2)CC(c2cccc(C(=N)N)c2)=NO1 (configuration not stated) .
Out: 5.55

In: Sample COC(=O)CC1(C(=O)Nc2ccc(-c3ccccc3S(N)(=O)=O)cc2C)CC(c2cccc(C(=N)N)c2)=NO1 (configuration not stated) — what was its pKi?
Out: 5.51

In: pKi lookup needed for COC(=O)CC1(C(=O)Nc2ccc(-c3ccccc3SC)cc2)CC(c2cccc(C(=N)N)c2)=NO1 (configuration not stated) , thanks.
Out: 5.92

In: Which measured pKi value corresponds to COC(=O)CC1(C(=O)Nc2ccc(-c3ccccc3S(N)(=O)=O)cc2F)CC(c2cccc(C(=N)N)c2)=NO1 (configuration not stated) ?
Out: 5.42

In: Entry COC(=O)CC1(C(=O)Nc2ccc(-c3ccccc3)cc2)CC(c2cccc(C(=N)N)c2)=NO1 (configuration not stated) has what pKi?
Out: 5.46

* * *

# System under test: Serine protease 1 (Homo sapiens, UniProt P07477)
# Sequence (P07477 whole entry): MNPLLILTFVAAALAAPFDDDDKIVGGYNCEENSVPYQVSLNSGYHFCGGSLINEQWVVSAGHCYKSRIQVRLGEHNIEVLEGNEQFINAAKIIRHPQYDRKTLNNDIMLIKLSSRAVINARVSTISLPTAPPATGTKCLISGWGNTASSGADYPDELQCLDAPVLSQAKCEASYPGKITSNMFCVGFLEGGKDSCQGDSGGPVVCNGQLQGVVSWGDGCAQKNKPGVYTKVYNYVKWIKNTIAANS
# Experimental protocol: The binding affinity was measured towards human purified trypsin
Property label: Ki (nM)
Give the value in nM but do not write nM after it.

In: Consider the compound shown here: COC(=O)CC1(C(=O)Nc2ccc(-c3ccccc3S(N)(=O)=O)cc2)CC(c2cccc(C(=N)N)c2)=NO1.O=C(O)C(F)(F)F (single isomer, unassigned; (+)) What is its recorded Ki?
Out: 300

In: # lookup: Ki of COC(=O)CC1(C(=O)Nc2ccc(-c3ccccc3S(N)(=O)=O)cc2)CC(c2cccc(C(=N)N)c2)=NO1.O=C(O)C(F)(F)F (single isomer, unassigned; (-))
Out: 98

In: If you can, please state the reported Ki value of COC(=O)CC1(C(=O)Nc2ncc(-c3ccccc3S(N)(=O)=O)cn2)CC(c2cccc(C(=N)N)c2)=NO1.O=C(O)C(F)(F)F (stereo in doubt; 34(+)) .
Out: 710

In: Requested field: Ki. Item: COC(=O)CC1(C(=O)Nc2ccc(-c3cccc(S(N)(=O)=O)c3)cc2)CC(c2cccc(C(=N)N)c2)=NO1 (stereo unspecified)
Out: 340

In: Entry under review: COC(=O)CC1(C(=O)Nc2ccc(-c3ccccc3S(N)(=O)=O)cc2F)CC(c2cccc(C(=N)N)c2)=NO1 (stereo unspecified) . Reported Ki?
Out: 120

In: I'd like to know its Ki. The compound in question is COC(=O)CC1(C(=O)Nc2ccc(-c3ccccc3C(F)(F)F)cc2)CC(c2cccc(C(=N)N)c2)=NO1 (stereo unspecified)
Out: 230
